System: Staphylococcus aureus
Test: Antibacterial activity against methicillin-resistant Staphylococcus aureus SA86 by CLSI M07-A8 protocol based microdilution method
Assay type: functional
measurement-kind: MIC (µg/mL)
Please reply with the bare figure in µg/mL and do not write the unit itself.

Inquiry: Identify MIC associated with the compound CC(C)CCC[C@@H]1CC(=O)N[C@@H](CO)C(=O)N[C@H](CCCCN)C(=O)N[C@@H](CO)C(=O)NCC(=O)N(C)[C@H](Cc2ccccc2)C(=O)N[C@@H](CC(C)C)C(=O)N[C@H](CCCN)C(=O)N[C@@H](CCC(=O)O)C(=O)N[C@H](CC(N)=O)C(=O)N[C@H](Cc2c[nH]c3ccccc23)C(=O)N[C@H](CCCN)C(=O)N(C)[C@@H](C(C)C)C(=O)O1
Reply text: 1

Inquiry: Identify MIC associated with the compound CC(C)CCC[C@@H]1CC(=O)N[C@@H](CO)C(=O)N[C@H](CC(N)=O)C(=O)N[C@@H](CCCCN)C(=O)NCC(=O)N(C)[C@H](Cc2ccccc2)C(=O)N[C@@H](CC(C)C)C(=O)N[C@H](CCCN)C(=O)N[C@@H](CCC(=O)O)C(=O)N[C@H](CC(N)=O)C(=O)N[C@H](Cc2c[nH]c3ccccc23)C(=O)N[C@H](CCCN)C(=O)N(C)[C@@H](C(C)C)C(=O)O1
Reply text: 2

Inquiry: Identify MIC associated with the compound CC(C)CCC[C@@H]1CC(=O)N[C@@H](CO)C(=O)N[C@H](CC(N)=O)C(=O)N[C@@H](CO)C(=O)NCC(=O)N(C)[C@H](Cc2ccccc2)C(=O)N[C@@H](CC(C)C)C(=O)N[C@H](CCCN)C(=O)N[C@@H](CCC(=O)O)C(=O)N[C@H](CC(N)=O)C(=O)N[C@H](Cc2c[nH]c3ccccc23)C(=O)N[C@H](Cc2c[nH]cn2)C(=O)N(C)[C@@H](C(C)C)C(=O)O1
Reply text: 2

Inquiry: Identify MIC associated with the compound CC(C)CCC[C@@H]1CC(=O)N[C@@H](CO)C(=O)N[C@H]([C@H](O)C(N)=O)C(=O)N[C@@H](CO)C(=O)NCC(=O)N(C)[C@H](Cc2ccccc2)C(=O)N[C@@H](CC(C)C)C(=O)N[C@H](CCCN)C(=O)N[C@@H](CCC(=O)O)C(=O)N[C@H](CC(N)=O)C(=O)N[C@H](Cc2c[nH]c3ccccc23)C(=O)N[C@H](CCCN)C(=O)N(C)[C@@H](C(C)C)C(=O)O1
Reply text: 1

Inquiry: Identify MIC associated with the compound CC(C)CCC[C@@H]1CC(=O)N[C@@H](CO)C(=O)N[C@H](CC(N)=O)C(=O)N[C@@H](CO)C(=O)NCC(=O)N(C)[C@H](Cc2ccccc2)C(=O)N[C@@H](CC(C)C)C(=O)N[C@H](CCCN)C(=O)N[C@@H](CCC(=O)O)C(=O)N[C@H](CC(N)=O)C(=O)N[C@H](Cc2c[nH]c3ccccc23)C(=O)N[C@H](CCCN)C(=O)N(C)[C@@H](C(C)C)C(=O)O1
Reply text: 1

Inquiry: Identify MIC associated with the compound CC(C)CCC[C@@H]1CC(=O)N[C@@H](CO)C(=O)N[C@H](CC(N)=O)C(=O)N[C@@H](C)C(=O)NCC(=O)N(C)[C@H](Cc2ccccc2)C(=O)N[C@@H](CC(C)C)C(=O)N[C@H](CCCN)C(=O)N[C@@H](CCC(=O)O)C(=O)N[C@H](CC(N)=O)C(=O)N[C@H](Cc2c[nH]c3ccccc23)C(=O)N[C@H](CCCN)C(=O)N(C)[C@@H](C(C)C)C(=O)O1
Reply text: 2

Inquiry: Identify MIC associated with the compound CC(C)CCC[C@@H]1CC(=O)N[C@@H](CO)C(=O)N[C@H](CC(N)=O)C(=O)N[C@@H](CO)C(=O)NCC(=O)N(C)[C@H](Cc2ccccc2)C(=O)N[C@@H](CC(C)C)C(=O)N[C@H](CCCN)C(=O)N[C@@H](CCCCN)C(=O)N[C@H](CC(N)=O)C(=O)N[C@H](Cc2c[nH]c3ccccc23)C(=O)N[C@H](CCCN)C(=O)N(C)[C@@H](C(C)C)C(=O)O1
Reply text: 1

---

System: Staphylococcus aureus
Experiment: Antibacterial activity against methicillin-resistant Staphylococcus aureus SA86 by CLSI M07-A8 protocol based microdilution method
Type: functional
Exercise: state measured MIC for each of the compounds provided.
Please reply with the bare figure in µg/mL and do not write the unit itself.

Inquiry: Identify MIC associated with the compound CC(C)CCC[C@@H]1CC(=O)N[C@@H](CO)C(=O)N[C@H]([C@@H](O)C(N)=O)C(=O)N[C@@H](CO)C(=O)NCC(=O)N(C)[C@H](Cc2ccccc2)C(=O)N[C@@H](CC(C)C)C(=O)N[C@H](CCCN)C(=O)N[C@@H](CCC(=O)O)C(=O)N[C@H](CC(N)=O)C(=O)N[C@H](Cc2c[nH]c3ccccc23)C(=O)N[C@H](CCCN)C(=O)N(C)[C@@H](C(C)C)C(=O)O1
Reply text: 1

Inquiry: Identify MIC associated with the compound CC(C)CCC[C@@H]1CC(=O)N[C@@H](CO)C(=O)N[C@H](CC(N)=O)C(=O)N[C@@H](CO)C(=O)NCC(=O)N(C)[C@H](Cc2ccccc2)C(=O)N[C@@H](CC(C)C)C(=O)N[C@H](CCCCN)C(=O)N[C@@H](CCC(=O)O)C(=O)N[C@H](CC(N)=O)C(=O)N[C@H](Cc2c[nH]c3ccccc23)C(=O)N[C@H](CCCN)C(=O)N(C)[C@@H](C(C)C)C(=O)O1
Reply text: 2

Inquiry: Identify MIC associated with the compound CC(C)CCC[C@@H]1CC(=O)N[C@@H](CO)C(=O)N[C@H](CC(N)=O)C(=O)N[C@@H](CO)C(=O)NCC(=O)N(C)[C@H](Cc2ccccc2)C(=O)N[C@@H](CC(C)C)C(=O)N[C@H](CCCN)C(=O)N[C@@H](CCC(=O)O)C(=O)N[C@H](CC(N)=O)C(=O)N[C@H](Cc2c[nH]c3ccccc23)C(=O)N[C@H](CCCNC(=N)N)C(=O)N(C)[C@@H](C(C)C)C(=O)O1
Reply text: 2

---

System: Staphylococcus aureus
Assay: Antibacterial activity against methicillin-resistant Staphylococcus aureus SA86 by CLSI M07-A8 protocol based microdilution method
Type: functional
Exercise: state measured MIC for each of the compounds provided.
Please reply with the bare figure in µg/mL and do not write the unit itself.

Inquiry: Return reported MIC for target or system Staphylococcus aureus, item CC(C)CCC[C@@H]1CC(=O)N[C@@H](CO)C(=O)N[C@H](CC(N)=O)C(=O)N[C@@H](CO)C(=O)NCC(=O)N(C)[C@H](Cc2ccccc2)C(=O)N[C@@H](CC(C)C)C(=O)N[C@H](CCCN)C(=O)N[C@@H](CCC(=O)O)C(=O)N[C@H](CCCCN)C(=O)N[C@H](Cc2c[nH]c3ccccc23)C(=O)N[C@H](CCCN)C(=O)N(C)[C@@H](C(C)C)C(=O)O1 .
Reply text: 1

Inquiry: Return reported MIC for target or system Staphylococcus aureus, item CC(C)CCC[C@@H]1CC(=O)N[C@@H](C)C(=O)N[C@H](CC(N)=O)C(=O)N[C@@H](CO)C(=O)NCC(=O)N(C)[C@H](Cc2ccccc2)C(=O)N[C@@H](CC(C)C)C(=O)N[C@H](CCCN)C(=O)N[C@@H](CCC(=O)O)C(=O)N[C@H](CC(N)=O)C(=O)N[C@H](Cc2c[nH]c3ccccc23)C(=O)N[C@H](CCCN)C(=O)N(C)[C@@H](C(C)C)C(=O)O1 .
Reply text: 2

---

Test system: Staphylococcus aureus
Test: Antibacterial activity against methicillin-resistant Staphylococcus aureus SA86 by CLSI M07-A8 protocol based microdilution method
Type: functional
Exercise: state measured MIC for each of the compounds provided.

Inquiry: Identify MIC associated with the compound CC(C)CCC[C@@H]1CC(=O)N[C@@H](CO)C(=O)N[C@H](CC(N)=O)C(=O)N[C@@H](CO)C(=O)NCC(=O)N(C)[C@H](Cc2ccccc2)C(=O)N[C@@H](CCCCN)C(=O)N[C@H](CCCN)C(=O)N[C@@H](CCC(=O)O)C(=O)N[C@H](CC(N)=O)C(=O)N[C@H](Cc2c[nH]c3ccccc23)C(=O)N[C@H](CCCN)C(=O)N(C)[C@@H](C(C)C)C(=O)O1
Reply text: ≥ 32 µg/mL

Inquiry: Identify MIC associated with the compound CC(C)CCC[C@@H]1CC(=O)N[C@@H](CO)C(=O)N[C@H](CC(N)=O)C(=O)N[C@@H](CO)C(=O)NCC(=O)N(C)[C@H](Cc2ccccc2)C(=O)N[C@@H](CC(C)C)C(=O)N[C@H](Cc2c[nH]cn2)C(=O)N[C@@H](CCC(=O)O)C(=O)N[C@H](CC(N)=O)C(=O)N[C@H](Cc2c[nH]c3ccccc23)C(=O)N[C@H](CCCN)C(=O)N(C)[C@@H](C(C)C)C(=O)O1
Reply text: 2 µg/mL

Inquiry: Identify MIC associated with the compound CC(C)CCC[C@@H]1CC(=O)N[C@@H](CO)C(=O)N[C@H](CC(N)=O)C(=O)N[C@@H](CO)C(=O)NCC(=O)N(C)[C@H](Cc2ccccc2)C(=O)N[C@@H](CC(C)C)C(=O)N[C@H](CCCN)C(=O)N[C@@H](CCC(=O)O)C(=O)N[C@H](CC(N)=O)C(=O)N[C@H](C)C(=O)N[C@H](CCCN)C(=O)N(C)[C@@H](C(C)C)C(=O)O1
Reply text: ≥ 32 µg/mL

Inquiry: Identify MIC associated with the compound CC(C)CCC[C@@H]1CC(=O)N[C@@H](CO)C(=O)N[C@H](CC(N)=O)C(=O)N[C@@H](CO)C(=O)NCC(=O)N(C)[C@H](Cc2ccccc2)C(=O)N[C@@H](C)C(=O)N[C@H](CCCN)C(=O)N[C@@H](CCC(=O)O)C(=O)N[C@H](CC(N)=O)C(=O)N[C@H](Cc2c[nH]c3ccccc23)C(=O)N[C@H](CCCN)C(=O)N(C)[C@@H](C(C)C)C(=O)O1
Reply text: ≥ 32 µg/mL

These measurements were taken from ChEMBL document CHEMBL4725375.
